Test system: Cryptococcus neoformans
Property: MIC; scope: individual molecules
A number alone suffices; assume µM.

Worked set:
                                        smi  recorded_result
0  COC(=O)c1ccc(-c2nnc(SC3=CS(=O)(=O)c4ccccc43)o2)cc1               60
1  O=S1(=O)C=C(Sc2nnc(-c3ccccc3)o2)c2ccccc21                6
2  O=S1(=O)C=C(Sc2nnc(-c3ccccn3)o2)c2ccccc21                6

Q. What value of MIC has been recorded for this entry: O=S1(=O)C=C(Sc2nnc(-c3ccccc3Cl)o2)c2ccccc21
A. 6

Q. Please give the result for O=S1(=O)C=C(Sc2nnc(-c3cccc(Cl)c3)o2)c2ccccc21 too.
A. 6

Q. Please give the result for Cc1ccc(-c2nnc(SC3=CS(=O)(=O)c4ccccc43)o2)cc1 too.
A. 22
